Origin of the recorded values: PubChem BioAssay (NCATS)

MEASUREMENT_DESCRIPTION: Quantitative High-Throughput drug screen in 47 multiple myeloma cell lines against the NCATS MIPE library collection: OPM1_PLB cell viability assay (AID 1918989); note: nearly all actives have a fitted effect of over 40% in size; note: potency is the fitted concentration of half-maximal effect
RECORDED_CONDITIONS: CellTiter-Glo, 48 h; series mostly up to 45.8 µM
Records with an inconclusive call do not appear. Activity calls are given as the source filed them. Calls come from the whole dose curve; as a rule, active = well fitted cell-killing curve with a large enough effect; inconclusive = small, poorly fitted or top-dose-only effect, or effect the other way; inactive = no such curve, though single readings can be large or run the other way.
QUANTITY_MEASURED: Potency

In the examples that follow, each entry is paired with its recorded Potency.
CN(Cc1cc(Br)cc(Br)c1N)C1CCCCC1 ... inactive
O=S(=O)(O)CCS ... inactive
Cc1nnc(NS(=O)(=O)c2ccc(N)cc2)s1 ... 14.8 µM (active)
CCCCOc1ccc(CC(=O)NO)cc1 ... 14.8 µM (active)

Proceeding to the next molecule to report its Potency.
Task: Item under review: Cn1nnc2c(C(N)=O)ncn2c1=O . Reported Potency?
Result: inactive
